- system_under_test: somatostatin receptor (Rattus norvegicus, UniProt P30680)
- Construct: endogenous in cells
- Sequence (P30680 whole entry): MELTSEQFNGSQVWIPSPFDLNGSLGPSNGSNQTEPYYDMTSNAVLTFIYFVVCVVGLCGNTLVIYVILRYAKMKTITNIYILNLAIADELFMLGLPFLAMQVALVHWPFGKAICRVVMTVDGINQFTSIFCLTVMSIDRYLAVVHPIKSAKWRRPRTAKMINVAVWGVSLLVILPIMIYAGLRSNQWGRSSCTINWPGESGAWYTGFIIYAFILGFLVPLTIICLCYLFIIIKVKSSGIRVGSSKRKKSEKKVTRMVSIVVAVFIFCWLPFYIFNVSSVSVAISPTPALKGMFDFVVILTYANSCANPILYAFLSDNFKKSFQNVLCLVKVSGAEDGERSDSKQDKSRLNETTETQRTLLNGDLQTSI
- method: Inhibition of binding of (125I-Tyr11)somatostatin-14 to AR42J rat pancreatic tumor cell membranes
- test_context: 0.5 nM (125I-Tyr11)somatostatin-14, 25 min at 30° C., read-out: K1 (inhibition constant)
Square brackets hold non-standard residues; d marks the D form. Peptide text beside a SMILES is read from it. * marks the point of attachment. X11 = NCCCC[C@H](NC(=O)C*)C(=O)NCCCC[C@H](N)C(=O)NCC(=O)N[C@@H](CS)C(N)=O; X13 = CC(=O)NCSC[C@H](NC(=O)CNC(=O)[C@H](CSCNC(C)=O)NC(=O)C*)C(N)=O; X7 = NC(=O)[C@H](CS)NC(=O)CNC(=O)[C@@H](N)CCCCNC(=O)C*; X5 = O=C(CNC(=O)[C@H](CS)NC(=O)C*)N[C@@H](CS)C(=O)O; X6 = NC(=O)[C@H](CS)NC(=O)CNC(=O)[C@H](CS)NC(=O)C*; X12 = NC(=O)[C@H](CS)NC(=O)CNC(=O)CNC(=O)C*; NMeF = CN[C@@H](Cc1ccccc1)C(=O)O; hCys = N[C@@H](CCS)C(=O)O
assay_endpoint: pKi
pKi here: minus log base 10 of the concentration, concentration in moles per litre.

Examples with answers:
CC(=O)NCSC[C@H](NC(=O)CNC(=O)[C@H](CSCNC(C)=O)NC(=O)CSCC[C@@H]1NC(=O)[C@H](C(C)C)NC(=O)[C@H](CCCCN)NC(=O)[C@@H](Cc2c[nH]c3ccccc23)NC(=O)[C@H](Cc2ccc(O)cc2)NC(=O)[C@H](Cc2ccccc2)N(C)C1=O)C(N)=O (cyclo(KV[hCys](X13)[NMeF]Y[dW])) | 9.10
CC(C)[C@@H]1NC(=O)[C@H](CCCCN)NC(=O)[C@@H](Cc2c[nH]c3ccccc23)NC(=O)[C@H](Cc2ccc(O)cc2)NC(=O)[C@H](Cc2ccccc2)N(C)C(=O)[C@H](CCSCC(=O)N[C@@H](CS)C(=O)NCC(=O)N[C@@H](CS)C(=O)O)NC1=O [cyclo.(N-CH3)FYWD KV.Hcy(CH2 CO.CGC)] (cyclo(KV[hCys](X5)[NMeF]Y[dW])) | 8.74
CC(C)[C@@H]1NC(=O)[C@H](CCCCN)NC(=O)[C@@H](Cc2c[nH]c3ccccc23)NC(=O)[C@H](Cc2ccc(O)cc2)NC(=O)[C@H](Cc2ccccc2)N(C)C(=O)[C@H](CCSCC(=O)N[C@@H](CS)C(=O)NCC(=O)N[C@@H](CS)C(N)=O)NC1=O (cyclo([NMeF]Y[dW]KV[hCys](X6))) | 8.82
CC(C)[C@@H]1NC(=O)[C@H](CCCCN)NC(=O)[C@@H](Cc2c[nH]c3ccccc23)NC(=O)[C@H](Cc2ccc(O)cc2)NC(=O)[C@H](Cc2ccccc2)N(C)C(=O)[C@H](CCSCC(=O)NCC(=O)NCC(=O)N[C@@H](CS)C(N)=O)NC1=O (cyclo([NMeF]Y[dW]KV[hCys](X12))) | 8.62

Inquiry: Please look up its pKi: CC(C)[C@@H]1NC(=O)[C@H](CCCCN)NC(=O)[C@@H](Cc2c[nH]c3ccccc23)NC(=O)[C@H](Cc2ccc(O)cc2)NC(=O)[C@H](Cc2ccccc2)N(C)C(=O)[C@H](CCSCC(=O)NCCCC[C@H](N)C(=O)NCC(=O)N[C@@H](CS)C(N)=O)NC1=O (cyclo([NMeF]Y[dW]KV[hCys](X7)))
Reply text: 8.70

Inquiry: Here is the next compound: CC(C)[C@@H]1NC(=O)[C@H](CCCCN)NC(=O)[C@@H](Cc2c[nH]c3ccccc23)NC(=O)[C@H](Cc2ccc(O)cc2)NC(=O)[C@H](Cc2ccccc2)N(C)C(=O)[C@H](CCSCC(=O)N[C@@H](CCCCN)C(=O)NCCCC[C@H](N)C(=O)NCC(=O)N[C@@H](CS)C(N)=O)NC1=O (cyclo([NMeF]Y[dW]KV[hCys](X11)))
Reply text: 9.19
